The reported measurements were obtained from the supplement of paper PMC10567573.

B1: PTPRD (parent)
chain: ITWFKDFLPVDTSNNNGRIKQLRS

# Variants of: B1
# assay: protein stability index of a GFP-peptide fusion (GPS, HEK-293T) (PSI 1-6); higher = more stable;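 further: lentivirally expressed fusions sorted by FACS into six bins by GFP to DsRed ratio, PSI derived from sequencing read proportions per bin multiplied by bin number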
# measurementSetup: c terminus: a fixed tail appended
Property: protein stability index; scope: individual variants

mutationCode	protein stability index
K5E	2.91
F7N	2.47
L8H	1.93
I1C	1.9
T2D	1.53
N14T	1.76
R23Y	1.63
P9W	1.75
L22I	2.24
N15R	1.71
Q21D	2.17
R18S	1.95
K5R	1.79
Q21G	2.28
L8D	2.31
S24Y	1.94
R18Q	2.24
L8Y	1.64
R18T	1.93
N15V	1.74
V10Q	2.17
G17L	1.73
